Just for reference, patent US20140314667A1 is where these values come from.

# target: T1, EGFRvIII receptor in NR6 M cells (Homo sapiens, UniProt P00533, DELINS30-297G)
# T1 construct: NR6 M cells stably expressing full length EGFRvIII; expressed in transfected cells; host or cells: NR6 cells (NR6 M)
# test.name: Internalization of EGFRvIII receptor by recombinant mAbs (FACS)
# Type: cell-based
# condition: 0.25 μg/ml antibody, 1 hr
FACS Geometric mean With glutathione 4° C. listing for selected molecules.
Respond numerically, and do not add a unit to the figure.

Solved entries:
{"columns": ["molecule", "measured.value"],
 "data": [
  ["250: XenoMax derived anti-EGFRvIII antibody, SEQ ID NO: 9/26 (antibody, listed as Homo sapiens, V domains shown) VH: EGQLLESGGGWVQPGESLRLSCAASGFTFSSYAMSWVRQAPGKGLEWVSAISGSGGSTNYADSVKGRFTISRDNSKNTLYLQVNSLRVEDTAVYYCAGSSGWSEYWGQGTLVTVSS VL: DIQMTQSPSSLSASVGDSVTITCRTSQGIRKNLGWYQQKPGKAPKRLIYAASSLQSGVPSRFSGSGSGTEFTLTISRLQPEDFATYYCLQHHSYPLTFGGGTRVEIR", 4.84],
  ["139: XenoMax derived anti-EGFRvIII antibody, SEQ ID NO: 10/25 (antibody, listed as Homo sapiens, V domains shown) VH: EVQVLESGGGLVQPGGSLRLSCAASGFTFSSYAMSWVRQAPGKGLEWVSAISGSGGSTNYADSVKGRFTISRDNSKNTLYLQMNSLRAEDTAVYYCAGSSGWSEYWGQGTLVTVSS VL: DIQMTQSPSSLSASVGDRVTITCRASQGIRNNLAWYQQKPGKAPKRLIYAASNLQSGVPSRFTGSGSGTEFTLIVSSLQPEDFATYYCLQHHSYPLTSGGGTKVEIK", 4.88],
  ["211: XenoMax derived anti-EGFRvIII antibody, SEQ ID NO: 12/28 (antibody, listed as Homo sapiens, V domains shown) VH: QVQLVESGGGVVQPGRSLRLSCVASGFTLSSYGMHWVRQAPGKGLEWVAVTSYDGSKKDYADSAKGRFTISRDNSKNTLYLQMNSLRAEDTAVYYCVSEGYCSSSSCYKYYYYGMDVWGQGTTVTVSS VL: DIVMTQSPLSLPVTPGEPASISCRSSQSLLYRNGNNYLDWYLQRPGQSPQLLIYLGSNRASGVPDRFSGSGSGTDFTLKISRVEAEDVGVYYCMQALQTPRTFGQGTKVEIK", 4.78]
]}

Q: If you can, please state the reported FACS Geometric mean With glutathione 4° C. value of 170: XenoMax derived anti-EGFRvIII antibody, SEQ ID NO: 4/20 (antibody, listed as Homo sapiens, V domains shown) VH: QVQLQQSGPGLVKPSQTLSLTCAISGDSVSSNNAAWNWIRQSPARGLEWLGRTYYRSKWYNDYVVSVKSRITINPDTSKNQFSLQLNSVTPEDTAVYYCVRATAFDYWGQGTLVTVSS VL: AIVLTQTPLSSPVTLGQPASISCRSSQSLVHRDGNTYLSWLQQRPGQPPRLLIYKISNRFSGVPDRFSGSGAGTDFTLKISRVEPDDVGVYYCMHTTQLPWTFGQGTKVEIK .
Result: 4.67

Q: Tell me the measured FACS Geometric mean With glutathione 4° C. of 150: XenoMax derived anti-EGFRvIII antibody, SEQ ID NO: 5/21 (antibody, listed as Homo sapiens, V domains shown) VH: QVQLQQSGPGLVKPSQTLSLTCAISGDSVSSYSSAWNWIRQSPSRGLEWLGRAYHRSRWYYEYAVSVKSRINITPDTSKNQFSLQLNSVTPEDTAVYYCARGSRFDYWGQGTLVTVSS VL: DIVMTQTPLSSPVTLGQPASISCRSSQSLVHRDGNTYLSWLQQRPGQPPRLLIYKISNRFSGVPDRFSGSGAGTDFTLKISRVEAEDVGIYFCMHTTQFPWTFGQGTRVEIK , please.
Result: 4.66
